target: the molecule itself; test: SEC-MALS
Quick reference: stoichiometry N of the listed items.
ASSAY_READOUT: stoichiometry N

[
  {
    "PROTEIN": "M. tuberculosis Ku V248A (natural protein) MRAIWTGSIAFGLVNVPVKVYSATADHDIRFHQVHAKDNGRIRYKRVCEACGEVVDYRDLARAYESGDGQMVAITDDDIASLPEERSREIEVLEFVPAADVDPMMFDRSYFLEPDSKSSKSYVLLAKTLAETDRMAIVHFTLRNKTRLAALRVKDFGKREVMMVHTLLWPDEIRDPDFPVLDQKVEIKPAELKMAGQVVDSMADDFNPDRYHDTYQEQLQELIDTKLEGGQAFTAEDQPRLLDEPEDASDLLAKLEASVKARSKANSNVPTPP",
    "ASSAY_READOUT": "stoichiometry N",
    "MEASURED": 2
  },
  {
    "PROTEIN": "M. tuberculosis Ku E256A (natural protein) MRAIWTGSIAFGLVNVPVKVYSATADHDIRFHQVHAKDNGRIRYKRVCEACGEVVDYRDLARAYESGDGQMVAITDDDIASLPEERSREIEVLEFVPAADVDPMMFDRSYFLEPDSKSSKSYVLLAKTLAETDRMAIVHFTLRNKTRLAALRVKDFGKREVMMVHTLLWPDEIRDPDFPVLDQKVEIKPAELKMAGQVVDSMADDFNPDRYHDTYQEQLQELIDTKLEGGQAFTAEDQPRLLDEPEDVSDLLAKLAASVKARSKANSNVPTPP",
    "ASSAY_READOUT": "stoichiometry N",
    "MEASURED": 2
  }
]
